Reported IC50, Tyrosine-protein phosphatase non-receptor type 2 (Homo sapiens).
Please reply with the bare figure in µM and do not write the unit itself.

# count of solved cases: 3
[[record]]
structure_notation = "COc1cccc(S(=O)(=O)Nc2ccc(-c3nc4cc(NS(=O)(=O)c5cccc(OC)c5)ccc4o3)cc2)c1"
unit_string = "µM"
test_value = 16

[[record]]
structure_notation = "Cc1ccc(S(=O)(=O)Nc2ccc(-c3nc4cc(NS(=O)(=O)c5ccc(C)cc5)ccc4o3)cc2)cc1"
unit_string = "µM"
test_value = 18

[[record]]
structure_notation = "COc1ccc(Cl)cc1S(=O)(=O)Nc1ccc(-c2nc3ccccc3o2)cc1"
unit_string = "µM"
test_value = 28


What measured IC50 is associated with O=S(=O)(Nc1ccc2oc(-c3ccc(NS(=O)(=O)c4ccc(Cl)s4)cc3)nc2c1)c1ccc(Cl)c(C(F)(F)F)c1 on Tyrosine-protein phosphatase non-receptor type 2 (Homo sapiens)?
14

What measured IC50 is associated with O=S(=O)(Nc1ccc(-c2nc3cc(NS(=O)(=O)c4ccc(Cl)s4)ccc3o2)cc1)c1cccs1 on Tyrosine-protein phosphatase non-receptor type 2 (Homo sapiens)?
9.5

What measured IC50 is associated with O=S(=O)(Nc1ccc(-c2nc3cc(NS(=O)(=O)c4ccc(Cl)s4)ccc3o2)cc1)c1ccc(Br)cc1 on Tyrosine-protein phosphatase non-receptor type 2 (Homo sapiens)?
11

What measured IC50 is associated with O=S(=O)(Nc1ccc2oc(-c3ccc(NS(=O)(=O)c4ccc(Cl)s4)cc3)nc2c1)c1cccc(C(F)(F)F)c1 on Tyrosine-protein phosphatase non-receptor type 2 (Homo sapiens)?
20

What measured IC50 is associated with O=S(=O)(Nc1ccc2oc(-c3ccc(NS(=O)(=O)c4ccc(Cl)s4)cc3)nc2c1)c1ccccc1 on Tyrosine-protein phosphatase non-receptor type 2 (Homo sapiens)?
28

What measured IC50 is associated with Cc1ccccc1S(=O)(=O)Nc1ccc(-c2nc3ccccc3o2)cc1 on Tyrosine-protein phosphatase non-receptor type 2 (Homo sapiens)?
50

What measured IC50 is associated with C=Cc1ccc(S(=O)(=O)Nc2ccc3oc(-c4ccccc4)nc3c2)cc1 on Tyrosine-protein phosphatase non-receptor type 2 (Homo sapiens)?
46

What measured IC50 is associated with Cc1cccc(S(=O)(=O)Nc2ccc3oc(-c4ccccc4)nc3c2)c1 on Tyrosine-protein phosphatase non-receptor type 2 (Homo sapiens)?
57

What measured IC50 is associated with O=[N+]([O-])c1cc(S(=O)(=O)Nc2ccc3oc(-c4ccc(NS(=O)(=O)c5ccc(Cl)s5)cc4)nc3c2)ccc1Cl on Tyrosine-protein phosphatase non-receptor type 2 (Homo sapiens)?
8.9

What measured IC50 is associated with O=S(=O)(Nc1ccc2oc(-c3ccccc3)nc2c1)c1ccc(Cl)s1 on Tyrosine-protein phosphatase non-receptor type 2 (Homo sapiens)?
72

---

Reported log10(IC50), Tyrosine-protein phosphatase non-receptor type 5 (Homo sapiens, UniProt P54829).
Scale: decimal log of IC50, IC50 in µM.

# count of solved cases: 7
[[record]]
structure_notation = "Cc1cccc(S(=O)(=O)Nc2ccc3oc(-c4ccccc4)nc3c2)c1"
test_value = 1.59

[[record]]
structure_notation = "O=S(=O)(Nc1ccc(-c2nc3cc(NS(=O)(=O)c4cccc(C(F)(F)F)c4)ccc3o2)cc1)c1cccc(C(F)(F)F)c1"
test_value = 1.20

[[record]]
structure_notation = "O=S(=O)(Nc1ccc(-c2nc3cc(NS(=O)(=O)c4cccc(F)c4)ccc3o2)cc1)c1cccc(F)c1"
test_value = 1.49

[[record]]
structure_notation = "O=S(=O)(Nc1ccc(-c2nc3cc(NS(=O)(=O)c4cccc5ccccc45)ccc3o2)cc1)c1ccc(Cl)s1"
test_value = 0.71

[[record]]
structure_notation = "C=Cc1ccc(S(=O)(=O)Nc2ccc3oc(-c4ccc(NS(=O)(=O)c5ccc(Cl)s5)cc4)nc3c2)cc1"
test_value = 1.08

[[record]]
structure_notation = "O=S(=O)(Nc1ccc2oc(-c3ccc(NS(=O)(=O)c4ccc(Cl)s4)cc3)nc2c1)c1ccc(Br)cc1"
test_value = 1.08

[[record]]
structure_notation = "O=S(=O)(Nc1ccc2oc(-c3ccccc3)nc2c1)c1cccc(C(F)(F)F)c1"
test_value = 1.65


Next compound, please.
What measured log10(IC50) is associated with O=S(=O)(Nc1ccc(-c2nc3ccccc3o2)cc1)c1ccccc1C(F)(F)F on Tyrosine-protein phosphatase non-receptor type 5 (Homo sapiens, UniProt P54829)?
1.72
